All values here come from patent US12319739.

Please respond with reported Emax (IL-2 pg/ml), NCI-H226 co-culture, Donor B for every item in the list.
experimentalSystem: human CD137 on primary human CD8+ T cells (human, UniProt Q07011 24-255)
Sequence (Q07011 24-255): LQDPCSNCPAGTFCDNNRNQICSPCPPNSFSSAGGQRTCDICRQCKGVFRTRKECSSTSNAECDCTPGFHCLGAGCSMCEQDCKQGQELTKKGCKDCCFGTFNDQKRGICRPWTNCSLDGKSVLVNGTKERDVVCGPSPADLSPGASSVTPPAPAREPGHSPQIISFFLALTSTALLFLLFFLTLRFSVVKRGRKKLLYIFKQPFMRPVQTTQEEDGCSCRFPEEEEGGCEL
assayExplanation: cell-based or functional assay
One number for each entry, in pg/mL.

Quick batch: Emax (IL-2 pg/ml), NCI-H226 co-culture, Donor B for everything below.
1. FS22-172-003-AA/FS28-024-051 (bispecific antibody, human IgG1, kappa, L234A L235A, V domains shown, IgG1 mAb^2 with LALA) VH: EVQLLESGGGLVQPGGSLRLSCAASGFTLSYSSMSWVRQAPGKGLEWVSFITPSTGYTHYADSVKGRFTISRDNSKNTLYLQMNSLRAEDTAVYYCARRALIFDYWGQGTLVTVSS VL: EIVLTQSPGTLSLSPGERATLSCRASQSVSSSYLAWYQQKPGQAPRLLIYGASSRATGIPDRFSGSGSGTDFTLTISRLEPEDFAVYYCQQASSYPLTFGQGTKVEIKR
2. FS22-172-003-AA/FS28-256 (bispecific antibody, human IgG1, kappa, L234A L235A, V domains shown, IgG1 mAb^2 with LALA) VH: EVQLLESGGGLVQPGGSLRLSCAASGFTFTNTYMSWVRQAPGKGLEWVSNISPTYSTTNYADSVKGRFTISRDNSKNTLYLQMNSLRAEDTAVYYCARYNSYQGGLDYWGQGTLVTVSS VL: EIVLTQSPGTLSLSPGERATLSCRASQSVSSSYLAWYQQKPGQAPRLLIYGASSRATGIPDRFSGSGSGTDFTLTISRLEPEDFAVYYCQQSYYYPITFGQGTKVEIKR

*A*
1. 1800
2. 8590
